Value source: patent US11542259B2

Molecular target: AXL (Homo sapiens (Human), UniProt P30530)
Sequence (P30530 26-894): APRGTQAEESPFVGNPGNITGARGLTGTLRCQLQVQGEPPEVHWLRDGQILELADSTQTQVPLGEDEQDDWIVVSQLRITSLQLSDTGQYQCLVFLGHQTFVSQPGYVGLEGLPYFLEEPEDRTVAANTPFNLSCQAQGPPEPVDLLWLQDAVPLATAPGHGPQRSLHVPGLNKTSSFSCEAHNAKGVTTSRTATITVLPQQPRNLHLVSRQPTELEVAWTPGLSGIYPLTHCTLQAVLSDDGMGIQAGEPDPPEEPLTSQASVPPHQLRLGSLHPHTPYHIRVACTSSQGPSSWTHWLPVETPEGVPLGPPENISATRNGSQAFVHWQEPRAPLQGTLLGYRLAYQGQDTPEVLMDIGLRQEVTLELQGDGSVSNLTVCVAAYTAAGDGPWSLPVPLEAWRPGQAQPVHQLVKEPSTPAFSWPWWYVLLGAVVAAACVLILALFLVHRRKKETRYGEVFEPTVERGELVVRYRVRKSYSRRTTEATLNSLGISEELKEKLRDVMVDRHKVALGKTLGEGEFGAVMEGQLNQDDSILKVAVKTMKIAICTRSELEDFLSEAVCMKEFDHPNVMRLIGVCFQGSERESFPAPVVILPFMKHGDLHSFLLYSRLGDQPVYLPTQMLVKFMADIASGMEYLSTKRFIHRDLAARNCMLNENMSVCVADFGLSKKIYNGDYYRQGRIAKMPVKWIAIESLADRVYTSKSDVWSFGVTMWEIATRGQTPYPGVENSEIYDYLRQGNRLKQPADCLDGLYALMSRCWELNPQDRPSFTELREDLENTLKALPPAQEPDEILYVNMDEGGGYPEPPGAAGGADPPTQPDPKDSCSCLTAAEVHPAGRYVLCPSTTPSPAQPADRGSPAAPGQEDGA
Assay: AXL autophosphorylation ELISA in A-172 cells
Settings: cellular, Gas6 stimulated
pIC50: −log10 of the molar value. Where a name gives a salt, the structure may show the parent alone.
measured-endpoint: pIC50

{"compound": "CNC(=O)c1cc2c(Oc3ccc(NC(=O)C4(C(=O)N(C)c5ccc(F)cc5)CC4)cc3)ccnc2cc1OC", "test-value": "< 6.52"}
{"compound": "CNc1cc2nccc(Oc3ccc(NC(=O)C4(C(=O)Nc5ccc(F)cc5)CC4)cc3)c2cc1C(N)=O", "test-value": "7.00 to 8.00"}
{"compound": "CONC(=O)c1ccc2c(Oc3ccc(NC(=O)C4(C(=O)Nc5ccc(F)cc5)CC4)cc3)ccnc2c1", "test-value": "7.00 to 8.00"}
{"compound": "COc1cc2nccc(Oc3ccc(NC(=O)C4(C(=O)Nc5ccc(F)cc5)CC4)cc3)c2cc1C1CC1", "test-value": "7.00 to 8.00"}
{"compound": "COc1cc2nccc(Oc3ccc(NC(=O)C4(C(=O)Nc5ccc(F)cc5)CC4)cc3)c2cc1-c1ccc[nH]1", "test-value": "≥ 8.00"}
{"compound": "O=C(NOCCO)c1ccc2c(Oc3ccc(NC(=O)C4(C(=O)Nc5ccc(F)cc5)CC4)cc3F)ccnc2c1", "test-value": "7.00 to 8.00"}
{"compound": "COc1cc2nccc(Oc3ccc(NC(=O)C4(C(=O)Nc5ccc(F)cc5)CC4)cc3)c2cc1C1(O)CN(C(=O)OC(C)(C)C)C1", "test-value": "6.52 to 7.00"}
{"compound": "COc1cc2nccc(Oc3ccc(NC(=O)C4(C(=O)Nc5ccc(F)cc5)CC4)cc3)c2cc1-c1cccnc1", "test-value": "7.00 to 8.00"}
{"compound": "CNC(=O)c1cc2c(Oc3ccc(NC(=O)C4(C(=O)Nc5ccc(F)cc5OC)CC4)cc3F)ccnc2cc1OC", "test-value": "≥ 8.00"}
{"compound": "COc1cc2nccc(Oc3ccc(NC(=O)C4(C(=O)Nc5ccc(F)cc5)CC4)cc3)c2cc1C(=O)NC1CN(C)C1", "test-value": "≥ 8.00"}
{"compound": "COc1cc2nccc(Oc3ccc(NC(=O)C4(C(=O)Nc5ccc(F)cc5)CC4)cc3)c2cc1P(C)(C)=O", "test-value": "7.00 to 8.00"}
{"compound": "CNC(=O)c1cc2c(Oc3ccc(NC(=O)C4(C(=O)Nc5ccc(C(F)(F)F)cc5)CC4)cc3F)ccnc2cc1OC", "test-value": "6.52 to 7.00"}
{"compound": "CNC(=O)c1cc2c(Oc3ccc(NC(=O)C4(C(=O)Nc5ccc(F)cc5)CC4)cc3)ccnc2cc1OCCO", "test-value": "≥ 8.00"}
{"compound": "CCc1noc(-c2cc3c(Oc4ccc(NC(=O)C5(C(=O)Nc6ccc(F)cc6)CC5)cc4)ccnc3cc2OC)n1 [Compound 283, Hydrochloride]", "test-value": "7.00 to 8.00"}
{"compound": "NC(=O)c1cc2c(Oc3ccc(NC(=O)C4(C(=O)Nc5ccc(F)cc5)CC4)cc3)ccnc2cc1N", "test-value": "6.52 to 7.00"}
{"compound": "COc1cc2c(Oc3ccc(NC(=O)C4(C(=O)Nc5ccc(F)cc5)CC4)cc3)ccnc2cc1C(N)=O", "test-value": "7.00 to 8.00"}
{"compound": "COCCNc1cc2nccc(Oc3ccc(NC(=O)C4(C(=O)Nc5ccc(F)cc5)CC4)cc3)c2cc1C(N)=O", "test-value": "7.00 to 8.00"}
{"compound": "COc1cc2nccc(Oc3ccc(NC(=O)C4(C(=O)Nc5ccc(F)cc5)CC4)cc3F)c2cc1C(N)=O", "test-value": "≥ 8.00"}
{"compound": "O=C(Nc1ccc(F)cc1)C1(C(=O)Nc2ccc(Oc3ccnc4ccc(-c5nnco5)cc34)cc2)CC1", "test-value": "7.00 to 8.00"}
